molecular target: Endonuclease 8-like 1 (Homo sapiens) (UniProt Q96FI4); conditions: Compound Concentration 1.0 uM, Hit No;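 also: fluorescence at 594 nm from quenched duplex DNA oligonucleotides released by NEIL1 cleavage and strand separation, reported as reduction of this enzyme activity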
Sequence (Q96FI4 whole entry): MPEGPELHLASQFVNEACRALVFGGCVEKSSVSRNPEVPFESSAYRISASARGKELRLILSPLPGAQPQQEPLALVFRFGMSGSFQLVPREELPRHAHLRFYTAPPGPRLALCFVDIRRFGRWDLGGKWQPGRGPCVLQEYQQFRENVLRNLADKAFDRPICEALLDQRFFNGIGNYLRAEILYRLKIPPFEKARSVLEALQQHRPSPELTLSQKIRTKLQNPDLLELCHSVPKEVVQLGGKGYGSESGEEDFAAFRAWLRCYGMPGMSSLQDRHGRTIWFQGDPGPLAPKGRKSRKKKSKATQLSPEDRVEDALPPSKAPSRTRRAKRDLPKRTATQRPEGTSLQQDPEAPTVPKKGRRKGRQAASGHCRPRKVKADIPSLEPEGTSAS
Description: Inhibition of NEIL1 by quantifying inhibition of NEIL1-mediated cleavage and dissociation of quenched duplex DNA oligonucleotides, measured as fluorescence at 594 nm.
Metric name: inhibition
Output should be the measured figure followed by the unit it is expressed in.

Below, each entry is followed by its recorded inhibition result.
CC(C)(O)c1ccc(N2Cc3c(ccnc3-c3ccc(F)cc3OCC(F)(F)F)C2=O)cc1 :: -3.02%
Cc1ccc(C(=O)Nc2cccc(C(F)(F)F)c2)cc1Nc1nc(-c2cccnc2)nc2c1cnn2C :: 6.48%

// returns inhibition for CC[C@@H]1[C@H](F)C(=O)N[C@@H]1COc1nccc2cc(C(N)=O)c(OC)cc12 with Endonuclease 8-like 1 (Homo sapiens) (UniProt Q96FI4); value = -3.17%

// returns inhibition for O=C(NOC[C@H](O)CO)c1ccc(F)c(F)c1Nc1ccc(I)cc1F with Endonuclease 8-like 1 (Homo sapiens) (UniProt Q96FI4); value = 6.08%

// returns inhibition for COc1ncc(-c2ccc3nccc(-c4ccnnc4)c3c2)cc1NS(=O)(=O)c1ccc(F)cc1F with Endonuclease 8-like 1 (Homo sapiens) (UniProt Q96FI4); value = -9.77%

// returns inhibition for COc1ccc2cc(OCC3(C(=O)O)CN(C(=O)c4ccc(F)cc4)C3)ccc2c1 with Endonuclease 8-like 1 (Homo sapiens) (UniProt Q96FI4); value = 0.467%

Source of measurements: ChEMBL document CHEMBL5665443
